molecular target: T1, full-length human SIRPαV1 (NP_542970.1) on cells (human, UniProt P78324 31-504); experiment: flow cytometry, competition with CD47 tetramer, CHO-K1 cells
T1 construct: one molecule for CHO-K1 and Expi-CHO transfectants (NP_542970.1) and for endogenous V1 on U-937 cells and on CD14+ monocytes of V1/V1 donors; also called CHO-hSIRPαV1; αV1 WT
Item-by-item account of IC50
Answer in nM, number only, no unit symbol.

Answered examples (3):
BINDER: Antibody B (antibody, human IgG1, kappa, L234A L235A, V domains shown) VH: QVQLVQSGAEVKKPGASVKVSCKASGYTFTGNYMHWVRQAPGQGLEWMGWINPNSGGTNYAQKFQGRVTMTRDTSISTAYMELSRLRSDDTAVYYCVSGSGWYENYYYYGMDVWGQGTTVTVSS VL: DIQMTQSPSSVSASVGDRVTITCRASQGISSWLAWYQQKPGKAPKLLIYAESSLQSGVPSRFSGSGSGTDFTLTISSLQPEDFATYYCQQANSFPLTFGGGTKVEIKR
IC50, nM: 5.6
//
BINDER: Anti-SIRPα antibody KWAR23 (antibody, V domains shown) VH: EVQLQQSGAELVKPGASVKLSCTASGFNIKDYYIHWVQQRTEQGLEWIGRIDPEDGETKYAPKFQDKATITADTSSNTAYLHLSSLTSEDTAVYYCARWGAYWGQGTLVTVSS VL: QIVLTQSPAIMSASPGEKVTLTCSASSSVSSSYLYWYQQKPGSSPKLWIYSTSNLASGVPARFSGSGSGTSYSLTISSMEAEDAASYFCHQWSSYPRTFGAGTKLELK
IC50, nM: 0.9
//
BINDER: Antibody C (antibody, human IgG1, kappa, L234A L235A, V domains shown) VH: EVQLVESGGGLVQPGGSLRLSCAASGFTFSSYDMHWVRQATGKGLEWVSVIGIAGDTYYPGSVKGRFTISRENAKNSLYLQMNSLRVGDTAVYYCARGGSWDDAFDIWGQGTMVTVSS VL: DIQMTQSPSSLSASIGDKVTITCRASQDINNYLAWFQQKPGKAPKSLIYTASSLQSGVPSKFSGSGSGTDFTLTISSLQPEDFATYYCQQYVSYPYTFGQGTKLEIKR
IC50, nM: 0.7

Switching to the query record.
Input line: Query (binder): Antibody D (antibody, human IgG1, kappa, L234A L235A, V domains shown) VH: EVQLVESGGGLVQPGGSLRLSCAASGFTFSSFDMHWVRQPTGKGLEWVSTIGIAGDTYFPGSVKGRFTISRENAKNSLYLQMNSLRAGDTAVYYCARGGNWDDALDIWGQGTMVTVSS VL: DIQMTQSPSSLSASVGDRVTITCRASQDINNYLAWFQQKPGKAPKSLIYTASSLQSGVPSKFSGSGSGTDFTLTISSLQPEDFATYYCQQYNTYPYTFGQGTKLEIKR ; field requested: IC50
Output line: 0.6

Each recorded value in this set is attributed to patent US20230012273A1.
